Molecular target: Aromatase (Homo sapiens)
Sequence (P11511 whole entry): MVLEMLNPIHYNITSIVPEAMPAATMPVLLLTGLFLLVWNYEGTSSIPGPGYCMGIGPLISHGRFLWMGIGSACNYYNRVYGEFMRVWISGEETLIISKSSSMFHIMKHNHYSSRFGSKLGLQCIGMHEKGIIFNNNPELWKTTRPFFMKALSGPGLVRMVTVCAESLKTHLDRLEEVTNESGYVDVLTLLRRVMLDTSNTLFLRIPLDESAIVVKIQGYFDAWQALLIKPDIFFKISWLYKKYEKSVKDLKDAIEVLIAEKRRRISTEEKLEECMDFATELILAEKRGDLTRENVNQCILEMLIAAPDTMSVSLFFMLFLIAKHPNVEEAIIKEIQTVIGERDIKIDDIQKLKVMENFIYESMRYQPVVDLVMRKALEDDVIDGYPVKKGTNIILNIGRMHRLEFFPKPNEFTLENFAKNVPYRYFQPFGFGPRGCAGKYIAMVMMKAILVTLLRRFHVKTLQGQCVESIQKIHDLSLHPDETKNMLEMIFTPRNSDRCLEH
measured.parameter: IC50 (µM)

1) C[C@]12C[C@@H](CCCc3ccccc3)C(=O)C=C1CC[C@@H]1[C@@H]2CC[C@]2(C)C(=O)CC[C@@H]12	50.2
2) C[C@]12CC[C@H]3[C@@H](CCC4=CCCC[C@@]43CO)[C@@H]1C[C@@H](O)C2=O	8.99
3) CCOC1=C[C@@]2(C)C(=CC1=O)CC[C@@H]1[C@@H]2CC[C@]2(C)C(=O)CC[C@@H]12	17.6
4) CCCCCC[C@@H]1C[C@@]2(C)C(=CC1=O)CC[C@@H]1[C@@H]2CC[C@]2(C)C(=O)CC[C@@H]12	10.4
5) CC(=O)O[C@H]1C2=CC(=O)CC[C@]2(C)[C@H]2CC[C@]3(C)C(=O)CC[C@H]3[C@@H]2C1N=[N+]=[N-] (stereo not given in full)	23.1
6) C[C@]12CC[C@H]3[C@@H](C=CC4=CC(=O)C=C[C@@]43CBr)[C@@H]1CCC2=O	2.1
7) CCC[C@H]1C[C@@H]2[C@H](CC[C@]3(C)C(=O)CC[C@@H]23)[C@@]2(C)C=CC(=O)C=C12	0.27
8) C[C@]12CCC(=O)c3c1c(nn3Cc1ccc([N+](=O)[O-])cc1)C[C@@H]1[C@@H]2CC[C@]2(C)C(=O)CC[C@@H]12	0.658
9) C[C@]12CCC(=O)C=C1[C@@H](Cc1ccccc1)C[C@@H]1[C@@H]2CC[C@]2(C)C(=O)CC[C@@H]12	0.661
10) C[C@]12CC[C@H]3[C@@H](CC=C4C(=O)CCC[C@@]43C=O)[C@@H]1CCC2=O	27
11) C[C@]12CCC(=O)C=C1C[C@@H](Sc1ccc(N)cc1)[C@@H]1[C@@H]2CC[C@]2(C)C(=O)CC[C@@H]12	0.16
12) CCC1=C[C@@H]2[C@H](CC[C@]3(C)C(=O)CC[C@@H]23)[C@@]2(C)CCC(=O)C=C12	0.39
13) C[C@]12CC[C@@H]3c4ccc(O)cc4[C@@H](c4ccccc4)C[C@H]3[C@@H]1CC[C@@H]2O	129
14) C[C@]12CC[C@H]3[C@@H](CCC4=CC(=O)CC[C@@]43CI)[C@@H]1CCC2=O	4.1
15) C[C@]12C=C(Br)C(=O)C=C1CC[C@@H]1[C@@H]2CC[C@]2(C)C(=O)CC[C@@H]12	1.84
